Tested on: Escherichia coli TOP10;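 further: peptides expressed intracellularly from a pBAD plasmid library in pooled LB shake-flask culture, induced with 0.3% L-arabinose, DNA abundance read by NGS, three biological replicates, DESeq2 with apeglm shrinkage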
Experiment: shrunken log2 fold change of peptide-encoding DNA abundance (4.5 h post-induction vs induction); higher = less antimicrobial activity (less host growth inhibition)
Details: time post-induction: 4.5 h; library: site-saturation at positions 5, 18, 19, 20
Entry flag: TRUE if shrunken log2 fold change reaches 0.09; FALSE if it does not.

[Q] For this sequence, is measured shrunken log2 fold change 0.09 or higher? RRIRLRPPRLPRPRPRPALYPRP
[A] TRUE

[Q] Record RRIRKRPPRLPRPRPRPGEFPRP ; criterion: shrunken log2 fold change no lower than 0.09. Met?
[A] TRUE

[Q] Reported shrunken log2 fold change reaches at least 0.09 for RRIRYRPPRLPRPRPRPGPTPRP ?
[A] FALSE

[Q] Form field: shrunken log2 fold change at least 0.09? Entry: RRIRGRPPRLPRPRPRPCSVPRP
[A] TRUE

[Q] Would you say RRIRGRPPRLPRPRPRPMVGPRP shows shrunken log2 fold change at minimum 0.09?
[A] TRUE

[Q] Is it the case that RRIRQRPPRLPRPRPRPIGHPRP has shrunken log2 fold change reaching or exceeding 0.09?
[A] FALSE

[Q] Exam item: decide whether the reported shrunken log2 fold change for RRIRRRPPRLPRPRPRPRNMPRP is at least 0.09.
[A] TRUE

[Q] Could you please find out whether RRIRTRPPRLPRPRPRPLMCPRP has shrunken log2 fold change that meets 0.09 or exceeds it?
[A] FALSE

[Q] Can RRIRTRPPRLPRPRPRPRAMPRP be said to have shrunken log2 fold change at or above 0.09?
[A] TRUE

[Q] Textbook exercise: given the entry RRIRLRPPRLPRPRPRPVAPPRP , state whether its shrunken log2 fold change is greater than or equal to 0.09.
[A] TRUE

[Q] Confirm if shrunken log2 fold change reported for the sequence RRIRPRPPRLPRPRPRPRFVPRP is 0.09 or above.
[A] TRUE

[Q] Would you say RRIRTRPPRLPRPRPRPRMYPRP shows shrunken log2 fold change at minimum 0.09?
[A] FALSE

[Q] Reported shrunken log2 fold change at or above 0.09? RRIRVRPPRLPRPRPRPTHSPRP
[A] TRUE

[Q] In plain terms: is recorded shrunken log2 fold change at least 0.09 for RRIRHRPPRLPRPRPRPAHPPRP ?
[A] TRUE

[Q] Please indicate if the recorded shrunken log2 fold change for RRIRIRPPRLPRPRPRPEKLPRP meets or exceeds 0.09.
[A] FALSE

[Q] Answer whether shrunken log2 fold change of RRIRARPPRLPRPRPRPINIPRP is greater than or equal to 0.09.
[A] FALSE

[Q] Is reported shrunken log2 fold change greater than or equal to 0.09 here: RRIRSRPPRLPRPRPRPNSMPRP
[A] FALSE

[Q] Given RRIRLRPPRLPRPRPRPRGWPRP , state whether its shrunken log2 fold change is at least 0.09.
[A] TRUE

[Q] Confirm if shrunken log2 fold change reported for the sequence RRIRLRPPRLPRPRPRPWMTPRP is 0.09 or above.
[A] FALSE

[Q] Exam item: decide whether the reported shrunken log2 fold change for RRIRERPPRLPRPRPRPKDRPRP is at least 0.09.
[A] FALSE

[Q] Does shrunken log2 fold change meet or surpass 0.09 for RRIRYRPPRLPRPRPRPTSTPRP ?
[A] FALSE

[Q] Has RRIRQRPPRLPRPRPRPHNNPRP a recorded shrunken log2 fold change greater than or equal to 0.09?
[A] FALSE

[Q] Does RRIRMRPPRLPRPRPRPQHNPRP have a reported shrunken log2 fold change of at least 0.09?
[A] FALSE

[Q] hey, is shrunken log2 fold change for this one >= 0.09? RRIRSRPPRLPRPRPRPARHPRP
[A] TRUE

[Q] Could you tell me if the measured shrunken log2 fold change of RRIRGRPPRLPRPRPRPLPWPRP reaches 0.09 or more?
[A] TRUE

[Q] Does shrunken log2 fold change meet or surpass 0.09 for RRIRKRPPRLPRPRPRPETRPRP ?
[A] TRUE

[Q] Reported shrunken log2 fold change reaches at least 0.09 for RRIRVRPPRLPRPRPRPQFYPRP ?
[A] FALSE

[Q] Please tell me: is the sequence RRIRFRPPRLPRPRPRPKTTPRP at or over 0.09 in terms of shrunken log2 fold change?
[A] TRUE

[Q] hey, is shrunken log2 fold change for this one >= 0.09? RRIRPRPPRLPRPRPRPIAKPRP
[A] FALSE

[Q] Form field: shrunken log2 fold change at least 0.09? Entry: RRIRVRPPRLPRPRPRPSGCPRP
[A] FALSE

[Q] Quick check, shrunken log2 fold change >= 0.09? RRIRPRPPRLPRPRPRPMWRPRP
[A] FALSE

[Q] Is reported shrunken log2 fold change greater than or equal to 0.09 here: RRIRQRPPRLPRPRPRPLMQPRP
[A] FALSE

[Q] Could you tell me if the measured shrunken log2 fold change of RRIRGRPPRLPRPRPRPCNEPRP reaches 0.09 or more?
[A] FALSE

[Q] Reported shrunken log2 fold change at or above 0.09? RRIRCRPPRLPRPRPRPCPQPRP
[A] FALSE

[Q] Textbook exercise: given the entry RRIRTRPPRLPRPRPRPLCGPRP , state whether its shrunken log2 fold change is greater than or equal to 0.09.
[A] FALSE

[Q] Given RRIRIRPPRLPRPRPRPLYQPRP , state whether its shrunken log2 fold change is at least 0.09.
[A] FALSE

[Q] Tell me whether shrunken log2 fold change is at least 0.09 here: RRIRVRPPRLPRPRPRPPKVPRP
[A] TRUE

[Q] Identify whether the reported shrunken log2 fold change of the following sequence is 0.09 or greater: RRIRPRPPRLPRPRPRPPKCPRP
[A] FALSE

[Q] Check if shrunken log2 fold change >= 0.09 (inclusive). Item: RRIRKRPPRLPRPRPRPIYYPRP
[A] FALSE

[Q] For this sequence, is measured shrunken log2 fold change 0.09 or higher? RRIRGRPPRLPRPRPRPAHTPRP
[A] TRUE

[Q] Is the recorded value of shrunken log2 fold change equal to or greater than 0.09 for this sequence? RRIRRRPPRLPRPRPRPDLVPRP
[A] FALSE

[Q] Check the entry RRIRKRPPRLPRPRPRPTYLPRP : does shrunken log2 fold change equal or exceed 0.09?
[A] FALSE

[Q] Could you verify whether the entry RRIRQRPPRLPRPRPRPCVWPRP shows shrunken log2 fold change of no less than 0.09?
[A] TRUE

[Q] Please tell me: is the sequence RRIRSRPPRLPRPRPRPGYKPRP at or over 0.09 in terms of shrunken log2 fold change?
[A] FALSE

[Q] In plain terms: is recorded shrunken log2 fold change at least 0.09 for RRIRCRPPRLPRPRPRPRGNPRP ?
[A] FALSE

[Q] Hi team, for RRIRIRPPRLPRPRPRPDGFPRP , is the recorded shrunken log2 fold change at or above 0.09?
[A] FALSE

[Q] Is shrunken log2 fold change for RRIRWRPPRLPRPRPRPKRLPRP at or above 0.09?
[A] TRUE

[Q] Reported shrunken log2 fold change at or above 0.09? RRIRTRPPRLPRPRPRPHMMPRP
[A] FALSE

[Q] Is the recorded value of shrunken log2 fold change equal to or greater than 0.09 for this sequence? RRIRFRPPRLPRPRPRPNHVPRP
[A] FALSE

[Q] Given the entry RRIRERPPRLPRPRPRPQIIPRP , answer whether its shrunken log2 fold change meets or surpasses 0.09.
[A] FALSE
